- testedSystem: CaBbc1
- experimentalProtocol: SPOT peptide array binding signal intensity (averaged, normalized) (arbitrary units (background-subtracted, floor 0; scale differs between SH3 domains)); higher = stronger binding of the SH3 domain to the peptide
Rule: SPOT peptide array binding signal intensity of 800 or more gives Y; anything lower gives N.

# binder, groupLabel
measured = [
    ("EQEEIAPSLPSRNSI", "N"),
    ("YLTRPLPSTPNEDSR", "N"),
    ("SRYRRPLTLLLLKPF", "N"),
    ("RRRRRPHRIERPLSN", "N"),
    ("SGVRLPAPPPPPRRG", "Y"),
    ("TEVPIPRRPPPPQAA", "N"),
    ("FVLRYYILIPHEQWD", "N"),
    ("PLQSKIPMLPSRRTM", "N"),
    ("GDHPKGPPPPPPPDE", "N"),
    ("NSVPIMPTLPPRPYI", "Y"),
    ("LKRITSPPLPPRADS", "Y"),
]
